# Tested on: ncRNAs (SEQ ID NO 28-89)
# Test Summary: ncRNA arrays of melanocytes, keratinocytes, normal skin, melanoma cell lines and patient samples
# Design: species or system human
# Measurement Conditions: melanoma patient 19 sample compared to normal skin
# Experimental: An ncRNA array platform that contains over 10,000 putative (>200 nt) ncRNAs including most of the known ncRNAs in mouse and human was conducted to evaluate ncRNAs within melanoma. Lack of coding potential was estimated by an algorithm that scores various characteristics of protein-coding genes, including open reading frame length, synonymous/non-synonymous base substitution rates and similarity to known proteins. […]
Property Name: ncRNA array expression, patient 19
Could you keep your reply to the number by itself?

Problem: Specify reported ncRNA array expression, patient 19 for the substance shown: SEQ ID NO 64 (TTGCCTAGGAACAAAGAAGGCTTGTGAGGAGATCAAGGAACTTACATGAAATTGTAGGAA; listed as DNA, chemistry not given here; listed as Homo sapiens)
Solution: 0.2184

Problem: Specify reported ncRNA array expression, patient 19 for the substance shown: SEQ ID NO 84 (TTATTAAAAGGACTGAGGATCATGTGTGTTGGTGTGTCCCGGAGTCTGCTCTAAGGTAAA; listed as DNA, chemistry not given here; listed as Homo sapiens)
Solution: 1.044

Problem: Specify reported ncRNA array expression, patient 19 for the substance shown: SEQ ID NO 34 (TTTTCTCTGCTTATTACCCTCCCTGTTTCCTCCTGGGCTGCCAACAACATATTATATTAC; listed as DNA, chemistry not given here; listed as Homo sapiens)
Solution: 2.243

Problem: Specify reported ncRNA array expression, patient 19 for the substance shown: SEQ ID NO 87 (GGGATATTTTTAAGGGGAAGGGGAAGGATAGAGAGAAAGTGCAGGCAGGGCTGGGGTCTG; listed as DNA, chemistry not given here; listed as Homo sapiens)
Solution: −0.8262

Problem: Specify reported ncRNA array expression, patient 19 for the substance shown: SEQ ID NO 48 (ACTTATATTCAGAGCATGTGGATTGGGACTCTGAAGAACAACTTTATGGTGGACACCTTC; listed as DNA, chemistry not given here; listed as Homo sapiens)
Solution: 3.38

* * *

For each of the substances below, state its ncRNA array expression, patient 2.
# Test system: ncRNAs (SEQ ID NO 28-89)
# Test Summary: ncRNA arrays of melanocytes, keratinocytes, normal skin, melanoma cell lines and patient samples
# Set-up: species or system human
# Measurement Conditions: melanoma patient 2 sample compared to normal skin
Could you keep your reply to the number by itself?

Problem: Specify reported ncRNA array expression, patient 2 for the substance shown: SEQ ID NO 83 (TCAGTTTGATGATTGGGCTAGGGAATGAAGCTTTGCCACTTAGGAGATAAACCCCATAAC; listed as DNA, chemistry not given here; listed as Homo sapiens)
Solution: −1.488

Problem: Specify reported ncRNA array expression, patient 2 for the substance shown: SEQ ID NO 78 (ATGGAAAGGCCAGGGGAGGGTGGAGCTCAGGAGTGGAAGCACAGGGACTAAGGCCTGAGC; listed as DNA, chemistry not given here; listed as Homo sapiens)
Solution: −3.7

Problem: Specify reported ncRNA array expression, patient 2 for the substance shown: SEQ ID NO 89 (GGACACAGAGAGTCATGCACCAGCCCAGTGAGAACCAATTCAGAGCCAAATGCCAAACCC; listed as DNA, chemistry not given here; listed as Homo sapiens)
Solution: −1.09

Problem: Specify reported ncRNA array expression, patient 2 for the substance shown: SEQ ID NO 82 (GAAGTCAGAAACTAAAGTTCCCTTCTAAGACAAAATCCTGCTTTGGAGAAAAAAAAAAAT; listed as DNA, chemistry not given here; listed as Homo sapiens)
Solution: −3.153

Problem: Specify reported ncRNA array expression, patient 2 for the substance shown: SEQ ID NO 63 (CTCACACGCACCCTTTCACTGTTTCTTAGTAATTTGTTTGTCTACAGACACAGACGGGAA; listed as DNA, chemistry not given here; listed as Homo sapiens)
Solution: −1.694

* * *

# Tested on: ncRNAs (SEQ ID NO 28-89)
# Test Summary: ncRNA arrays of melanocytes, keratinocytes, normal skin, melanoma cell lines and patient samples
# Set-up: species or system human
# Measurement Conditions: melanoma patient 21 sample compared to normal skin
# Method: An ncRNA array platform that contains over 10,000 putative (>200 nt) ncRNAs including most of the known ncRNAs in mouse and human was conducted to evaluate ncRNAs within melanoma. Lack of coding potential was estimated by an algorithm that scores various characteristics of protein-coding genes, including open reading frame length, synonymous/non-synonymous base substitution rates and similarity to known proteins. […]
Property Name: ncRNA array expression, patient 21
Could you keep your reply to the number by itself?

Problem: Specify reported ncRNA array expression, patient 21 for the substance shown: SEQ ID NO 32 (ATTCAAATCTTCATGAATGGCATCACTTGCTTTAGACCCATTTTTTTTTTATTGGTCAGA; DNA, backbone and methylation of C not given here; listed as Homo sapiens)
Solution: 0.7443

Problem: Specify reported ncRNA array expression, patient 21 for the substance shown: SEQ ID NO 58 (ATTTATTTGACTCTAAAATGACAATATAACAACTATAAGGAATTGATATGATGTCCTTAC; listed as DNA, chemistry not given here; listed as Homo sapiens)
Solution: −1.719

Problem: Specify reported ncRNA array expression, patient 21 for the substance shown: SEQ ID NO 79 (GTGTGTACTGATGTCAAAGACCAAATGGATGCCCCTGTGGCCAACAGTACCTTGTTAAAC; listed as DNA, chemistry not given here; listed as Homo sapiens)
Solution: 1.271

* * *

# System: ncRNAs (SEQ ID NO 28-89)
# Test Summary: ncRNA arrays of melanocytes, keratinocytes, normal skin, melanoma cell lines and patient samples
# Parameters: species or system human
# Measurement Conditions: melanoma patient 24 sample compared to normal skin
Decision: ncRNA array expression, patient 24 >= 1 yields condition met, all other cases yield condition not met.

Problem: Could you verify whether the entry SEQ ID NO 87 (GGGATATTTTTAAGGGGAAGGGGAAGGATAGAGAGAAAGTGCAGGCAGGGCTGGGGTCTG; listed as DNA, chemistry not given here; listed as Homo sapiens) shows ncRNA array expression, patient 24 of no less than 1?
Solution: condition not met

Problem: Could you verify whether the entry SEQ ID NO 60 (ACTAACAGCACTGGAGGGTGTAGTGTTTCCTACTTTATGGATGAGTGTACTGTGGGCTTC; listed as DNA, chemistry not given here; listed as Homo sapiens) shows ncRNA array expression, patient 24 of no less than 1?
Solution: condition met

Problem: Could you verify whether the entry SEQ ID NO 69 (AGAGTTCGCACTGGGAAGAGTTAAAAAATAAACATTTACAAGGACGAGGAAAGCGGCCCC; listed as DNA, chemistry not given here; listed as Homo sapiens) shows ncRNA array expression, patient 24 of no less than 1?
Solution: condition not met

Problem: Could you verify whether the entry SEQ ID NO 75 (CAAGTGGGAAGAAAAAGAGCCCTACGTGGTGACATTCTGGAAGGATATCATGGATGATTG; listed as DNA, chemistry not given here; listed as Homo sapiens) shows ncRNA array expression, patient 24 of no less than 1?
Solution: condition met

Problem: Could you verify whether the entry SEQ ID NO 86 (AAAATTATTTTATCTTAAGTTTCCATTTAGTTGATTAAAAATAGGGTTATGAATGTTAAA; listed as DNA, chemistry not given here; listed as Homo sapiens) shows ncRNA array expression, patient 24 of no less than 1?
Solution: condition met

* * *

For each of the substances below, state its ncRNA array expression, patient 8.
# System: ncRNAs (SEQ ID NO 28-89)
# Test Summary: ncRNA arrays of melanocytes, keratinocytes, normal skin, melanoma cell lines and patient samples
# Parameters: species or system human
# Measurement Conditions: melanoma patient 8 sample compared to normal skin
Could you keep your reply to the number by itself?

Problem: Provide the reported ncRNA array expression, patient 8 (system: ncRNAs (SEQ ID NO 28-89)) for SEQ ID NO 64 (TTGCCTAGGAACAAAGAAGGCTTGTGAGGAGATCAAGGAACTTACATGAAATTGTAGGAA; listed as DNA, chemistry not given here; listed as Homo sapiens)
Solution: 2.2638

Problem: Provide the reported ncRNA array expression, patient 8 (system: ncRNAs (SEQ ID NO 28-89)) for SEQ ID NO 82 (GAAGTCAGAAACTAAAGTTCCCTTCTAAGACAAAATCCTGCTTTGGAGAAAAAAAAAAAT; listed as DNA, chemistry not given here; listed as Homo sapiens)
Solution: −2.955

Problem: Provide the reported ncRNA array expression, patient 8 (system: ncRNAs (SEQ ID NO 28-89)) for SEQ ID NO 67 (TTCCCTATTCCATCCTTTGATGGGTGGCCTGTTACACGTTTGGAAATAAAAACAAGTGGG; listed as DNA, chemistry not given here; listed as Homo sapiens)
Solution: 1.375

Problem: Provide the reported ncRNA array expression, patient 8 (system: ncRNAs (SEQ ID NO 28-89)) for SEQ ID NO 73 (AAAGTTTCCCCATAATGCTCTTGCAAGTGAATATGAGCTGTGGTTTTTGCAGTGGAGTTA; listed as DNA, chemistry not given here; listed as Homo sapiens)
Solution: 1.518

Problem: Provide the reported ncRNA array expression, patient 8 (system: ncRNAs (SEQ ID NO 28-89)) for SEQ ID NO 75 (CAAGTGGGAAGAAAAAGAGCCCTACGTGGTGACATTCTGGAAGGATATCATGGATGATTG; listed as DNA, chemistry not given here; listed as Homo sapiens)
Solution: 2.605

Problem: Provide the reported ncRNA array expression, patient 8 (system: ncRNAs (SEQ ID NO 28-89)) for SEQ ID NO 62 (AATCGTTAATATCATTGATATTAAGTAATTTCCCCACTCTGAGTGAATACTTTGATGATG; listed as DNA, chemistry not given here; listed as Homo sapiens)
Solution: 0.2609

Problem: Provide the reported ncRNA array expression, patient 8 (system: ncRNAs (SEQ ID NO 28-89)) for SEQ ID NO 38 (GTAAACAAGGTCTCACAAAAACAGCTGACCACACCATAAAATCACTGAGACCGAGCCTGC; listed as DNA, chemistry not given here; listed as Homo sapiens)
Solution: −1.244

Problem: Provide the reported ncRNA array expression, patient 8 (system: ncRNAs (SEQ ID NO 28-89)) for SEQ ID NO 56 (AAAAAATGAGGCAATCTCATCCCGAAACTATTTAAAACTACTCTCCTCTCTCTTGATAAA; listed as DNA, chemistry not given here; listed as Homo sapiens)
Solution: −1.314

Problem: Provide the reported ncRNA array expression, patient 8 (system: ncRNAs (SEQ ID NO 28-89)) for SEQ ID NO 40 (GTTAAAGACTAAATTAGTGATTTGGGAGATCAAGCCAATGGGCTTGTCTAAAACCTAGTC; listed as DNA, chemistry not given here; listed as Homo sapiens)
Solution: 1.771

Problem: Provide the reported ncRNA array expression, patient 8 (system: ncRNAs (SEQ ID NO 28-89)) for SEQ ID NO 77 (AAGTTTCCACGGCAGGTTCTCGTAGCACCTTTGGTCAAGAACTGAAGGGGCCTTTAGATG; listed as DNA, chemistry not given here; listed as Homo sapiens)
Solution: −1.644

Problem: Provide the reported ncRNA array expression, patient 8 (system: ncRNAs (SEQ ID NO 28-89)) for SEQ ID NO 85 (TGAGGGGAGAGGGGATGGGAAACATTAGGGCTGGGTTCATGTAAAGGGACCAGCATTGTG; listed as DNA, chemistry not given here; listed as Homo sapiens)
Solution: −3.241

Problem: Provide the reported ncRNA array expression, patient 8 (system: ncRNAs (SEQ ID NO 28-89)) for SEQ ID NO 60 (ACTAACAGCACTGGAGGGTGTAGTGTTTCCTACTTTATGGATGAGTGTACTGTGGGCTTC; listed as DNA, chemistry not given here; listed as Homo sapiens)
Solution: 0.3154

Problem: Provide the reported ncRNA array expression, patient 8 (system: ncRNAs (SEQ ID NO 28-89)) for SEQ ID NO 54 (TTTTTTTTCTTGTCCTATTACAACATTTTATAACCTTATGAATCAATGGATACTTTTATT; listed as DNA, chemistry not given here; listed as Homo sapiens)
Solution: 1.144

Problem: Provide the reported ncRNA array expression, patient 8 (system: ncRNAs (SEQ ID NO 28-89)) for SEQ ID NO 28 (CTTAATGTATCTAAGGTTGGCTTAATCCTGTCTAAAATCAAGGTATTGGACTAGAACAAT; DNA, backbone and methylation of C not given here; listed as Homo sapiens)
Solution: 1.588

Problem: Provide the reported ncRNA array expression, patient 8 (system: ncRNAs (SEQ ID NO 28-89)) for SEQ ID NO 32 (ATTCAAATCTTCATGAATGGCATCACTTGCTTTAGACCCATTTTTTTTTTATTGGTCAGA; DNA, backbone and methylation of C not given here; listed as Homo sapiens)
Solution: 2.606

Problem: Provide the reported ncRNA array expression, patient 8 (system: ncRNAs (SEQ ID NO 28-89)) for SEQ ID NO 78 (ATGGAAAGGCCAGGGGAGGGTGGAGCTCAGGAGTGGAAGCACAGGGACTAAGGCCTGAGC; listed as DNA, chemistry not given here; listed as Homo sapiens)
Solution: −3.607

Problem: Provide the reported ncRNA array expression, patient 8 (system: ncRNAs (SEQ ID NO 28-89)) for SEQ ID NO 89 (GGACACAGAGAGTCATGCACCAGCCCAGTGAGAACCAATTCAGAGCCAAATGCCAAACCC; listed as DNA, chemistry not given here; listed as Homo sapiens)
Solution: −1.137

Problem: Provide the reported ncRNA array expression, patient 8 (system: ncRNAs (SEQ ID NO 28-89)) for SEQ ID NO 57 (TTGTTGTTTTGGGAGATACCCTGTTTAGCCTGAAAGGATTGAGATACTGTAATTGCTATG; listed as DNA, chemistry not given here; listed as Homo sapiens)
Solution: 1.985

Problem: Provide the reported ncRNA array expression, patient 8 (system: ncRNAs (SEQ ID NO 28-89)) for SEQ ID NO 47 (GTATTTGTAATATTTGATTTGCTTTTAGCAGAGAAAACAATAAAAGAATCCAGGAAAAGT; listed as DNA, chemistry not given here; listed as Homo sapiens)
Solution: −1.927
